test_details: NCI Yeast Anticancer Drug Screen. Data for the sgs1 mgt1 strain (AID 161);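 note: 0% = growth of cultures given vehicle only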
measurement_setup: S. cerevisiae sgs1 mgt1 strain, at 50.0 µM, active compounds read high
Compounds without any hit were thinned out: in the full panel of roughly 79,000, 15% have a hit.
measure: growth inhibition (%)

[[record]]
smiles_repr = "O=C1C[C@H](c2ccccc2)[C@H](c2ccccc2)C1"
measure = "growth inhibition"
output_unit = "%"
assay_value = 10.4

[[record]]
smiles_repr = "CC(=O)/C(Cc1ccccc1)=N/O"
measure = "growth inhibition"
output_unit = "%"
assay_value = 15.8

[[record]]
smiles_repr = "CC(=O)Nc1cccc(NC(C)=O)n1"
measure = "growth inhibition"
output_unit = "%"
assay_value = 1.25

[[record]]
smiles_repr = "CCOC(=O)c1coc(C(=O)OCC)c1C(=O)OCC"
measure = "growth inhibition"
output_unit = "%"
assay_value = 5.25

[[record]]
smiles_repr = "CCOC(=O)C(CCC(C)C)C(=O)OCC"
measure = "growth inhibition"
output_unit = "%"
assay_value = -9.65

[[record]]
smiles_repr = "N#Cc1ccc(NC(=O)Nc2cccc(C#N)c2)cc1"
measure = "growth inhibition"
output_unit = "%"
assay_value = -9.75

[[record]]
smiles_repr = "CCC(=O)Oc1ccc(OC)cc1"
measure = "growth inhibition"
output_unit = "%"
assay_value = 2.9


====

Measured growth inhibition values are reported for all entries that follow.
test_details: NCI Yeast Anticancer Drug Screen. Data for the mec2-1 strain (AID 157)
measurement_setup: S. cerevisiae mec2-1 strain, at 50.0 µM, active compounds read high
Compounds without any hit were thinned out: in the full panel of roughly 79,000, 15% have a hit.
measure: growth inhibition (%)

[[record]]
compound = "N#Cc1c(N)sc(=S)c2c1CCCC2"
measure = "growth inhibition"
assay_value = 9.85

[[record]]
compound = "Cc1cc2ccccc2c(O)c1C#N"
measure = "growth inhibition"
assay_value = 17.9

[[record]]
compound = "Cc1ccc(Cl)cc1N1C(=O)CC(Sc2ccccc2N)C1=O (stereo unspecified)"
measure = "growth inhibition"
assay_value = -2.8

[[record]]
compound = "Cc1cc2nc(CC(=O)c3cccc([N+](=O)[O-])c3)c(=O)[nH]c2cc1C"
measure = "growth inhibition"
assay_value = 10.9

[[record]]
compound = "COc1cc(-c2ccc(NC(=O)NC3CC3)c(OC)c2)ccc1NC(=O)NC1CC1"
measure = "growth inhibition"
assay_value = -23.2

[[record]]
compound = "Oc1ccc(Cc2ccccc2)c2cccnc12"
measure = "growth inhibition"
assay_value = -8.6

[[record]]
compound = "C=CC(O)CCC (stereo unspecified)"
measure = "growth inhibition"
assay_value = -41

[[record]]
compound = "N#CCc1ccc([N+](=O)[O-])cc1"
measure = "growth inhibition"
assay_value = 8.3

[[record]]
compound = "NC(C(=O)O)C(O)c1ccco1 (stereo unspecified)"
measure = "growth inhibition"
assay_value = -0.1

[[record]]
compound = "Cc1cc(C)c(N)c(S(=O)(=O)O)c1"
measure = "growth inhibition"
assay_value = -6.45

[[record]]
compound = "CCN(CC)c1ccc2nc3ccc(=[N+](CC)CC)cc-3oc2c1"
measure = "growth inhibition"
assay_value = -192

[[record]]
compound = "CCCCOC(=O)c1ccc(C(C)C)cc1"
measure = "growth inhibition"
assay_value = 6.85

[[record]]
compound = "[O-][N+](=Nc1cccc(Cl)c1)c1cccc(Cl)c1"
measure = "growth inhibition"
assay_value = -30.9

[[record]]
compound = "OCC1OC(OC2C(O)C(CO)OC2(CO)OC2OC(CO)C(O)C(O)C2O)C(O)C(O)C1O (stereo unspecified)"
measure = "growth inhibition"
assay_value = -7.95

[[record]]
compound = "O=C(CN1CCNCC1)N1CCOCC1"
measure = "growth inhibition"
assay_value = -25.1

[[record]]
compound = "COc1cc2c3cc1Oc1c(OC)c(OC)cc4c1C(Cc1ccc(O)c(c1)Oc1ccc(cc1)CC3N(C)CC2)N(C)CC4 (stereo unspecified)"
measure = "growth inhibition"
assay_value = 0.55

[[record]]
compound = "O=C(O)CNC(=O)c1ccccc1"
measure = "growth inhibition"
assay_value = -4.45

[[record]]
compound = "CCc1nn(Cc2ccccc2)c2nc(C)c(CCc3ccccc3)c(Cl)c12"
measure = "growth inhibition"
assay_value = -4.6

[[record]]
compound = "CCCCCCCCCCCCCC(=O)Oc1ccc[nH]c1=O"
measure = "growth inhibition"
assay_value = -19.6

[[record]]
compound = "CC(C)CCOC(=O)c1ccccc1"
measure = "growth inhibition"
assay_value = -22.5

[[record]]
compound = "O=C(Nc1ccccc1)OCCc1ccccc1"
measure = "growth inhibition"
assay_value = 37.8

[[record]]
compound = "O=C(c1ccc(O)cc1)c1ccc(O)cc1"
measure = "growth inhibition"
assay_value = -6.6

[[record]]
compound = "CCCCC(CC)COC(C)=O (stereo unspecified)"
measure = "growth inhibition"
assay_value = -13.5

[[record]]
compound = "CC(=O)OC1CC2C(C)(C)OC3CC(=O)OCC32C2CCC3(C)C(=CCC3c3ccoc3)C12C (stereo unspecified)"
measure = "growth inhibition"
assay_value = -5.7

[[record]]
compound = "CC(C)=NNc1ccc([N+](=O)[O-])cc1[N+](=O)[O-]"
measure = "growth inhibition"
assay_value = 12.8

[[record]]
compound = "O=C(O)/C=C/C(=O)NCc1ccccc1"
measure = "growth inhibition"
assay_value = 42.6


====

test_details: NCI Yeast Anticancer Drug Screen. Data for the mlh1 rad18 strain (AID 175)
measurement_setup: S. cerevisiae mlh1 rad18 strain growth inhibition; at 50.0 µM
The panel holds about 79,000 compounds, 15% with a hit somewhere; the sample as a whole holds those more often. Activity calls are given as the source filed them. Cut-off read from the data, not from the text of the source: active = growth inhibition above about 70%; inactive = the rest.
Labels: y = active, n = inactive

[[record]]
compound = "O=c1cc(-c2ccccc2)[nH]c2c1CCCC2"
label_value = "n"

[[record]]
compound = "CCC(O)CC(CC)CO (stereo not drawn)"
label_value = "n"

[[record]]
compound = "FC(F)(F)c1ccc2c(c1)N(CCCN1CCN(C3CC3)CC1)c1ccccc1S2"
label_value = "y"

[[record]]
compound = "CC(=O)Nc1ccc(NC(C)=O)c2c1C(=O)c1ccccc1C2=O"
label_value = "n"

[[record]]
compound = "CN(C)c1ccc(CNC(C(=O)c2ccccc2)c2ccccc2)cc1 (stereo not drawn)"
label_value = "n"

[[record]]
compound = "CCC(=O)Oc1ccc(OC)cc1"
label_value = "n"

[[record]]
compound = "COCCOC(=O)c1ccc(C(C)C)cc1"
label_value = "n"

[[record]]
compound = "CC1(C)Nc2cccc3c(N=Nc4ccc(N=Nc5ccccc5)c5ccccc45)ccc(c23)N1"
label_value = "n"

[[record]]
compound = "COc1ccc2c(NCCCCCCCCNc3c4ccccc4nc4cc(OC)ccc34)c3ccccc3nc2c1"
label_value = "y"

[[record]]
compound = "NCCCN"
label_value = "n"

[[record]]
compound = "CC(=O)OC(OC(C)=O)C1CCCO1 (stereo not drawn)"
label_value = "n"

[[record]]
compound = "CN(C)Cc1cc(C(C)(C)CC(C)(C)C)ccc1O"
label_value = "n"

[[record]]
compound = "CN(C)C(=O)Oc1cccc([N+](C)(C)C)c1"
label_value = "n"


====

test_details: NCI Yeast Anticancer Drug Screen. Data for the mec2-1 strain (AID 157)
measurement_setup: S. cerevisiae mec2-1 strain, at 50.0 µM, active compounds read high
About 79,000 compounds went through this panel and 15% of them were active in at least one assay; those are over-represented in the sample as a whole.
measure: growth inhibition (%)

[[record]]
compound = "Cc1ccc(C(=O)c2ccccc2)c(C)c1"
output_unit = "%"
assay_value = -1.75

[[record]]
compound = "S=c1[nH]ccn1-c1ccccc1Cl"
output_unit = "%"
assay_value = -17.2

[[record]]
compound = "Cc1nc2ccccc2c2nnc(SCC(=O)N(Cc3ccccc3)c3ccccc3)n12"
output_unit = "%"
assay_value = 6.6

[[record]]
compound = "COC(=O)/C=C\\C(=O)OC"
output_unit = "%"
assay_value = 6.85

[[record]]
compound = "Cc1ccccc1N=C(c1ccccc1)C1C(=O)c2ccccc2C1=O"
output_unit = "%"
assay_value = 19.4

[[record]]
compound = "C=CCNc1nnc(C)s1"
output_unit = "%"
assay_value = 19.7

[[record]]
compound = "CC(=O)NCc1cc(C)c(C)cc1C"
output_unit = "%"
assay_value = -20.1

[[record]]
compound = "CC(=O)/C(Cc1ccccc1)=N/O"
output_unit = "%"
assay_value = 4.55

[[record]]
compound = "Nc1ccccc1C(=O)Nc1ccc(Cl)cc1Cl"
output_unit = "%"
assay_value = -22.4

[[record]]
compound = "COc1ncnc2c1cnn2C"
output_unit = "%"
assay_value = 3.6

[[record]]
compound = "CCS(=O)(=O)CCCl"
output_unit = "%"
assay_value = -5.1

[[record]]
compound = "S=C1CCCCCN1"
output_unit = "%"
assay_value = 17.8

[[record]]
compound = "O=C1C=C(Nc2ccc([N+](=O)[O-])cc2)c2ccccc2C1=O"
output_unit = "%"
assay_value = -10.9

[[record]]
compound = "Cc1cc(NC(=O)CSCC(=O)O)no1"
output_unit = "%"
assay_value = -34.5

[[record]]
compound = "CC(C)OC(C(=O)O)c1ccccc1 (centres undefined)"
output_unit = "%"
assay_value = 2.2

[[record]]
compound = "O=C(O)CCCC(=O)O"
output_unit = "%"
assay_value = -0.7

[[record]]
compound = "CCC/C=C(\\C)C(C)(C#N)C(=O)OCC (centres undefined)"
output_unit = "%"
assay_value = -8.45

[[record]]
compound = "CCN=c1cc2sc3cc(NCC)c(C)cc3nc-2cc1C"
output_unit = "%"
assay_value = -35.8

[[record]]
compound = "COC(=O)c1cccc(Br)c1"
output_unit = "%"
assay_value = 1.5

[[record]]
compound = "C[C@]12CC[C@@H]3c4ccc(OCC(=O)O)cc4CC[C@H]3[C@@H]1CCC2=O"
output_unit = "%"
assay_value = 0.35

[[record]]
compound = "CCCCCCCCCCC(C)Br (centres undefined)"
output_unit = "%"
assay_value = -12.1

[[record]]
compound = "CC1CC(O)C2C3(C)CCCC2(COC3=O)C12CCC1(CCOC1=O)O2 (centres undefined)"
output_unit = "%"
assay_value = 8.35

[[record]]
compound = "O=S(=O)(O)CC(O)CN1CCN(CCO)CC1 (centres undefined)"
output_unit = "%"
assay_value = -35.8

[[record]]
compound = "CN(C)CCN(Cc1ccccc1)c1ccccc1"
output_unit = "%"
assay_value = -41.6

[[record]]
compound = "N#CC(=Nc1cccc(F)c1)C1=C(O)c2ccccc2C1=O"
output_unit = "%"
assay_value = -2.6

[[record]]
compound = "CC1=C(/C=C/C(C)=C/C=C/C(C)=C/CO)C(C)(C)CCC1"
output_unit = "%"
assay_value = 4.45

[[record]]
compound = "CC(C)=NNC(N)=S"
output_unit = "%"
assay_value = -9.4

[[record]]
compound = "Cc1cccc([N+](=O)[O-])c1Cl"
output_unit = "%"
assay_value = -72.5

[[record]]
compound = "COc1ccc(-c2cc3c(nn2)-c2ccccc2C3=O)cc1"
output_unit = "%"
assay_value = -16.7

